These entries and their values trace back to patent US20200181104A1.

Biological target: Recombinant Human SSAO/VAP-1/AOC3 (Homo sapiens)
Test: Human Semicarbazide-Sensitive Amine Oxidase (SSAO) Assay
Conditions: recombinant enzyme, 30 minutes preincubation at 37° C., benzylamine substrate, Amplex Ultra Red/HRP fluorescence
Description: Compounds were dissolved in DMSO to provide a Concentration Response Curve (CRC; at 500 times the final concentration) over a range of 6-10 dilutions. Recombinant Human SSAO/VAP-1/AOC3 (R&D systems; Catalog #3957-AO) was used to screen compound potency in vitro, according to previously described methods (J Pharmacol Exp Ther. 2013 November; 347(2):365-74). […]
pIC50: −log10 of the molar value. Structures can show the parent of a compound that is named as a salt.
Measured Property: pIC50

As a guide, the following entries are already answered.
Compound	Measured Property	Endpoint Result
CNC(=O)[C@H]1C2CC3CC1C[C@](c1ccc(OC/C(=C/F)CN)cc1)(C3)C2 (single isomer, unassigned) [Compound 6.01, Hydrochloride]	pIC50	≥ 8.00
COCCOCCNC(=O)C12CCC(c3ccc(OC/C(=C/F)CN)cc3)(CC1)CC2	pIC50	≥ 8.00
COCCOCCOCCOCCNC(=O)C12CCC(c3ccc(OC/C(=C/F)CN)cc3)(CC1)CC2	pIC50	≥ 8.00

-- ask Entry NC/C(=C\F)COc1ccc(C23CCC(C(N)=O)(CC2)CC3)cc1 : reported pIC50 = ?
-- reply ≥ 8.00

====

Below: a set of entries, each annotated with reported IC50.
biological target: Recombinant Human SSAO/VAP-1/AOC3 (Homo sapiens, UniProt Q16853); experiment: Human Semicarbazide-Sensitive Amine Oxidase (SSAO) Assay; details: recombinant enzyme, 30 minutes preincubation at 37° C., benzylamine substrate, Amplex Ultra Red/HRP fluorescence
Sequence (Q16853 whole entry): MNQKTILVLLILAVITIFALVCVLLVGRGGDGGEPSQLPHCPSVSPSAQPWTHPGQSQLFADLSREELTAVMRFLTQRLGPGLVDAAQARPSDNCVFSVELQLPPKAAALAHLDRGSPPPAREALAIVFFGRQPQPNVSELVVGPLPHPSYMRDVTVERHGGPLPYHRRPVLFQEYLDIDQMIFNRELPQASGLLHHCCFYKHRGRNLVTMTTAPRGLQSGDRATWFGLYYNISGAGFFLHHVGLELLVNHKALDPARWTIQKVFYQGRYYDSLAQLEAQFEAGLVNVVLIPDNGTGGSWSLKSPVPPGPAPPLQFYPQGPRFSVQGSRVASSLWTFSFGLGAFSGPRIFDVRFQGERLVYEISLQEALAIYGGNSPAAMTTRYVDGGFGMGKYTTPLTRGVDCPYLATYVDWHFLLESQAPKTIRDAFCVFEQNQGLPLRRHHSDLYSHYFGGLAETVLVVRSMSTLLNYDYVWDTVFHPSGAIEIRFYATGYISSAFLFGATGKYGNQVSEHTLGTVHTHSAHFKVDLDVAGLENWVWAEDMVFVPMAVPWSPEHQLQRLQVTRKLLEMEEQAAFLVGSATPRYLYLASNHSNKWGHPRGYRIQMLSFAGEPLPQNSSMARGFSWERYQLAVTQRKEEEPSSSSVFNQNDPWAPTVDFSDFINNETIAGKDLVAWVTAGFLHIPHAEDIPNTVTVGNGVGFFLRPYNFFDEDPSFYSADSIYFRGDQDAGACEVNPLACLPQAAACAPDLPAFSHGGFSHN

These recorded examples may help you get a feel for the data.
Molecule	IC50
CO[C@@H]1CCCN(C(=O)C23CCC(c4ccc(OC/C(=C/F)CN)cc4)(CC2)CC3)C1 [Compound 2.111]	≤ 10 nM
CNC(=O)C1(c2ccc(OC/C(=C/F)CN)cc2)CCCCC1 [Compound 1.01]	10 to 100 nM
NC/C(=C\F)COc1ccc(C23CCC(C(=O)NCCN4CCOCC4)(CC2)CC3)cc1 [Compound 2.75]	≤ 10 nM

// next item, IC50 requested
-- ask For the molecule shown here, NC/C(=C\F)COc1ccc(C23CCC(C(=O)O)(CC2)CC3)cc1 [Compound 2.05] , give the reported IC50.
-- reply 10 to 100 nM

====

molecular target: Recombinant Human SSAO/VAP-1/AOC3 (Homo sapiens); test: Human Semicarbazide-Sensitive Amine Oxidase (SSAO) Assay; details: recombinant enzyme, 30 minutes preincubation at 37° C., benzylamine substrate, Amplex Ultra Red/HRP fluorescence
pIC50: −log10 of the molar value. Structures can show the parent of a compound that is named as a salt.
Readings of pIC50 for the listed molecules

Molecule	Assay System	pIC50
COC(=O)C1CCN(C(=O)C23CCC(c4ccc(OC/C(=C/F)CN)cc4)(CC2)CC3)CC1	Recombinant Human SSAO/VAP-1/AOC3 (Homo sapiens)	≥ 8.00
C[C@H]1COCCN1C(=O)C12CCC(c3ccc(OC/C(=C/F)CN)cc3)(CC1)CC2	Recombinant Human SSAO/VAP-1/AOC3 (Homo sapiens)	≥ 8.00
NC/C(=C\F)COc1ccc(C23CCC(C(=O)N4CC(CO)C4)(CC2)CC3)cc1	Recombinant Human SSAO/VAP-1/AOC3 (Homo sapiens)	≥ 8.00
COC1(CCNC(=O)C23CCC(c4ccc(OC/C(=C/F)CN)cc4)(CC2)CC3)CCC1	Recombinant Human SSAO/VAP-1/AOC3 (Homo sapiens)	≥ 8.00
N#CC1(CNC(=O)C23CCC(c4ccc(OC/C(=C/F)CN)cc4)(CC2)CC3)CCOCC1	Recombinant Human SSAO/VAP-1/AOC3 (Homo sapiens)	≥ 8.00
NC/C(=C\F)COc1ccc(C23CCC(C(=O)N4CC(F)(CO)C4)(CC2)CC3)cc1	Recombinant Human SSAO/VAP-1/AOC3 (Homo sapiens)	≥ 8.00
NC/C(=C\F)COc1ccc(C23CCC(NC(=O)C4CCOCC4)(CC2)CC3)cc1 [Compound 7, Hydrochloride]	Recombinant Human SSAO/VAP-1/AOC3 (Homo sapiens)	≥ 8.00
COc1ccccc1CNC(=O)C12CCC(c3ccc(OC/C(=C/F)CN)cc3)(CC1)CC2	Recombinant Human SSAO/VAP-1/AOC3 (Homo sapiens)	≥ 8.00

-- ask // returns reported pIC50 for input COc1cccc(CNC(=O)C23CCC(c4ccc(OC/C(=C/F)CN)cc4)(CC2)CC3)n1
-- reply ≥ 8.00
